Entry source: PubChem BioAssay (NCATS)

max response listing for selected compounds.
# Measurement Target: Nuclear receptor subfamily 1 group I member 2 (Rattus norvegicus) (UniProt Q9R1A7)
# Sequence (Q9R1A7 whole entry, looked up): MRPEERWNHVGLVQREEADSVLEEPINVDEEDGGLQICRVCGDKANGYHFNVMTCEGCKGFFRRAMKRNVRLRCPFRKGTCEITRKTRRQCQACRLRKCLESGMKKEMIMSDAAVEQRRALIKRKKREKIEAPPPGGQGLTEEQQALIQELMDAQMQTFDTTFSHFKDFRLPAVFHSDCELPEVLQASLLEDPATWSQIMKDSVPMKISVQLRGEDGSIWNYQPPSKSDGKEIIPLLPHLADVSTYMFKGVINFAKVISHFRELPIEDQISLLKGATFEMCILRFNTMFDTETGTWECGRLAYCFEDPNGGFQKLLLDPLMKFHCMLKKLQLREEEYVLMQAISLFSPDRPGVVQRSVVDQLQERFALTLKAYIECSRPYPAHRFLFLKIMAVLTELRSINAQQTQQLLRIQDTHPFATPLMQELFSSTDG
# Assay: qHTS assay for small molecule activators of the rat pregnane X receptor (rPXR) signaling pathway (AID 651751); note: 0% is about no effect
# Condition Context: rPXR reporter cells, luciferase (One-Glo), 24 h
Write the number in % without appending the unit.

Example entries begin here.
compound=CCNc1nc(NC(C)C)nc(OC)n1 measurement_target="Nuclear receptor subfamily 1 group I member 2 (Rattus norvegicus) (UniProt Q9R1A7)" measurement_unit=% value_reported=0.846
compound=CCNc1nc(NC(C)C)nc(SC)n1 measurement_target="Nuclear receptor subfamily 1 group I member 2 (Rattus norvegicus) (UniProt Q9R1A7)" measurement_unit=% value_reported=-3.53
compound=O=[N+]([O-])c1ccc(Cl)c([N+](=O)[O-])c1 measurement_target="Nuclear receptor subfamily 1 group I member 2 (Rattus norvegicus) (UniProt Q9R1A7)" measurement_unit=% value_reported=-13.5

Prompt line: Please give the measured max response for this compound: CC1(C)CC/C(=C\c2ccc(Cl)cc2)C1(O)Cn1cncn1 (stereo unspecified)
Response line: 12.5

Prompt line: Please give the measured max response for this compound: CCCCC(CC)C(=O)Cl (stereo unspecified)
Response line: -0.98

Prompt line: Please give the measured max response for this compound: COc1cc(OC)nc(Sc2cccc(Cl)c2C(=O)O)n1
Response line: 3.18

---

activity change % (negative = inhibition) listing for selected compounds.
# Measurement Target: Thyroid hormone receptor beta (Homo sapiens) (UniProt P10828)
# Sequence (P10828 whole entry, looked up): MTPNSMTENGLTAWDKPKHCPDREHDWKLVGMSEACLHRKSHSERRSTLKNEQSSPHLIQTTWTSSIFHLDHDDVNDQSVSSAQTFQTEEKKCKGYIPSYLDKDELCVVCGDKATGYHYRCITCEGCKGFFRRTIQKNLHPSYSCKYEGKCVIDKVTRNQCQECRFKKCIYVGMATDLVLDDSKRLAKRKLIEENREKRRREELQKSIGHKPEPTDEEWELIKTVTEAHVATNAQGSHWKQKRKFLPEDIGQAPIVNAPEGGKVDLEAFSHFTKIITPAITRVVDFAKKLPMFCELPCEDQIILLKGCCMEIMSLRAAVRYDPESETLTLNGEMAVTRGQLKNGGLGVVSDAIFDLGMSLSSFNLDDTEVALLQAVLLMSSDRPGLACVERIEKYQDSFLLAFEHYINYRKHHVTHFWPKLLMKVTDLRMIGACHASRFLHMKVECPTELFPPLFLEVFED
# Assay: qHTS assay for small molecule antagonists of thyroid hormone receptor beta signaling (AID 588547);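 note: cells stimulated with 0.4 nM T3 agonist during compound exposure; series mostly up to about 77 µM; % is set by controls: 0 for no effect and ±100 for the full control effect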
# Condition Context: TR-UAS-bla HEK293, beta-lactamase ratio, antagonist mode, 18 h
Records with an inconclusive call do not appear.
Write the number in % without appending the unit.

compound=CCOC(=O)Nc1cccc(OC(=O)Nc2ccccc2)c1 measurement_target="Thyroid hormone receptor beta (Homo sapiens) (UniProt P10828)" measurement_unit=% value_reported=5.59

Prompt line: Form: Entry = CC(C)(C)OOC(C)(C)c1ccc(C(C)(C)OOC(C)(C)C)cc1 | System = Thyroid hormone receptor beta (Homo sapiens) (UniProt P10828) | activity change % (negative = inhibition) = ____
Response line: 10.7

Prompt line: Form: Entry = CCOP(=O)(O)C(N)=O | System = Thyroid hormone receptor beta (Homo sapiens) (UniProt P10828) | activity change % (negative = inhibition) = ____
Response line: -0.728

Prompt line: Form: Entry = CCCCC(CC)C(=O)Cl (stereo not drawn) | System = Thyroid hormone receptor beta (Homo sapiens) (UniProt P10828) | activity change % (negative = inhibition) = ____
Response line: 0.279

Prompt line: Form: Entry = CC(C)COP(=O)(OCC(C)C)OCC(C)C | System = Thyroid hormone receptor beta (Homo sapiens) (UniProt P10828) | activity change % (negative = inhibition) = ____
Response line: -6.4

Prompt line: Form: Entry = CNC(=O)N(C)c1nc2ccccc2s1 | System = Thyroid hormone receptor beta (Homo sapiens) (UniProt P10828) | activity change % (negative = inhibition) = ____
Response line: 9.18

Prompt line: Form: Entry = CC(=NC#N)N(C)Cc1ccc(Cl)nc1 | System = Thyroid hormone receptor beta (Homo sapiens) (UniProt P10828) | activity change % (negative = inhibition) = ____
Response line: -1.79

Prompt line: Form: Entry = COC[C@H](C)N(C(=O)CCl)c1c(C)csc1C | System = Thyroid hormone receptor beta (Homo sapiens) (UniProt P10828) | activity change % (negative = inhibition) = ____
Response line: -22.8

Prompt line: Form: Entry = CCc1cnc(C2=NC(C)(C(C)C)C(=O)N2)c(C(=O)O)c1 (stereo not drawn) | System = Thyroid hormone receptor beta (Homo sapiens) (UniProt P10828) | activity change % (negative = inhibition) = ____
Response line: -0.801

Prompt line: Form: Entry = CCC[CH2][Sn](=[O])[CH2]CCC | System = Thyroid hormone receptor beta (Homo sapiens) (UniProt P10828) | activity change % (negative = inhibition) = ____
Response line: -7.82

Prompt line: Form: Entry = Brc1ccc(Oc2ccccc2)cc1 | System = Thyroid hormone receptor beta (Homo sapiens) (UniProt P10828) | activity change % (negative = inhibition) = ____
Response line: -9.48

Prompt line: Form: Entry = CCC(C)c1ccc(O)cc1 (stereo not drawn) | System = Thyroid hormone receptor beta (Homo sapiens) (UniProt P10828) | activity change % (negative = inhibition) = ____
Response line: 6.18

Prompt line: Form: Entry = CCNc1nc(Cl)nc(NC(C)(C)C)n1 | System = Thyroid hormone receptor beta (Homo sapiens) (UniProt P10828) | activity change % (negative = inhibition) = ____
Response line: -28
